Attribute: pIC50
- SUBJECT OF TEST: human renin (Homo sapiens, UniProt P00797)
- Construct: A human plasma pool is used as the source of both the substrate (angiotensinogen) and the enzyme (renin)
- Sequence (P00797 67-406): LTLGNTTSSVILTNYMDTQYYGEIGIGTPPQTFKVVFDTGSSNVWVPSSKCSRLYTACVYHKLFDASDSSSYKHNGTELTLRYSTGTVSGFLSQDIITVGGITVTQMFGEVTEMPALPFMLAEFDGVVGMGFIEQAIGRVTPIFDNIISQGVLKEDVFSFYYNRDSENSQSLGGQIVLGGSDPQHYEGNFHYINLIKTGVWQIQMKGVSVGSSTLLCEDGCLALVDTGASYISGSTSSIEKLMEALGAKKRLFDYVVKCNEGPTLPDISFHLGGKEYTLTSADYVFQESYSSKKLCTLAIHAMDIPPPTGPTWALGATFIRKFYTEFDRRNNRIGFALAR
- METHOD DESCRIPTION: Plasma renin assay (inhibition of human renin, angiotensin I by RIA)
- MEASUREMENT PARAMETERS: human plasma pool, pH 6.0, 2 h incubation at 37°
pIC50: −log10 of the molar value.
OBSERVATION TYPE: pIC50

INSERT INTO results (mol, observation_type, numeric_value) VALUES
  ('CC(C)C[C@H](O)[C@H](O)[C@H](CC1CCCCC1)NC(=O)[C@@H](CC(=O)N(CC(=O)N(C)C)CC1CCCCCC1)Cc1csc(N)n1', 'pIC50', 9.22),
  ('CC(C)C[C@H](O)[C@H](O)[C@H](CC1CCCCC1)NC(=O)[C@@H](CC(=O)N(CC(=O)N(C)CCc1ccccn1)Cc1ccccc1)Cc1nccs1', 'pIC50', 8.46),
  ('CC(C)OC(=O)[C@H](O)[C@H](CC1CCCCC1)NC(=O)[C@@H](CC(=O)N(CC(=O)N(C)CCc1ccccn1)CC1CCCCC1)Cc1csc(N)n1', 'pIC50', 7.74),
  ('CC(C)C[C@H](O)[C@H](O)[C@H](CC1CCCCC1)NC(=O)[C@@H](CC(=O)N(CC(=O)N(C)C(C)(C)C)Cc1ccccc1)CC1CC1', 'pIC50', 6.54),
  ('CC(C)C[C@H](O)[C@H](O)[C@H](CC1CCCCC1)NC(=O)[C@@H](CC(=O)N(CC(=O)N(C)CCN(C)C(=O)N1CCOCC1)[C@@H](C)c1ccccc1)Cc1csc(N)n1', 'pIC50', 9.30),
  ('CCC[C@H](CC(=O)N(CC(=O)N(C)CCc1ccccn1)Cc1ccccc1)C(=O)N[C@@H](CC1CCCCC1)[C@@H](O)[C@@H](O)CC(C)C', 'pIC50', 7.54),
  ('CNC(=O)CN(Cc1ccccc1)C(=O)C[C@@H](CC1CC1)C(=O)N[C@@H](CC1CCCCC1)[C@@H](O)[C@@H](O)CC(C)C', 'pIC50', 6.46),
  ('CC(C)C[C@H](O)[C@H](O)[C@H](CC1CCCCC1)NC(=O)[C@@H](CC(=O)N(CCC1CCCC1)CC(=O)N(C)CCc1ccccn1)Cc1csc(N)n1', 'pIC50', 8.70),
  ('CC(C)C[C@H](O)[C@H](O)[C@H](CC1CCCCC1)NC(=O)[C@@H](CC(=O)N(CC(=O)N(C)CCc1ccccn1)Cc1ccccc1F)Cc1csc(N)n1', 'pIC50', 8.52),
  ('CC(C)C[C@H](O)[C@H](O)[C@H](CC1CCCCC1)NC(=O)[C@@H](CC(=O)N(CC(=O)N(C)C)[C@@H](C)C1CCCCC1)CC1CC1', 'pIC50', 8.08),
  ('CC(C)C[C@H](O)[C@H](O)[C@H](CC1CCCCC1)NC(=O)[C@@H](CC(=O)N(CCc1ccccc1)CC(=O)N(C)C)Cc1csc(N)n1', 'pIC50', 8.30),
  ('CC(C)C[C@H](O)[C@H](O)[C@H](CC1CCCCC1)NC(=O)[C@@H](CC(=O)N(CCCc1ccccc1)CC(=O)N(C)C)CC1CC1', 'pIC50', 6.66),
  ('CC(C)C[C@H](O)[C@H](O)[C@H](CC1CCCCC1)NC(=O)[C@@H](CC(=O)N(CC(=O)N(C)C)CC1CCCC1)Cc1cccnc1', 'pIC50', 7.49),
  ('CCCC(CCC)CN(CC(=O)N(C)CCc1ccccn1)C(=O)C[C@@H](Cc1csc(N)n1)C(=O)N[C@@H](CC1CCCCC1)[C@@H](O)[C@@H](O)CC(C)C', 'pIC50', 8.30),
  ('CC(C)C[C@H](O)[C@H](O)[C@H](CC1CCCCC1)NC(=O)[C@@H](CC(=O)N(CC(=O)N(C)CCc1ccccn1)Cc1ccoc1)Cc1csc(N)n1', 'pIC50', 8.52),
  ('CC(C)C[C@H](O)[C@H](O)[C@H](CC1CCCCC1)NC(=O)[C@@H](CC(=O)N(CC(=O)N(C)CCc1ccccn1)Cc1ccccc1)Cc1cccs1', 'pIC50', 7.89),
  ('CC(C)C[C@H](O)[C@H](O)[C@H](CC1CCCCC1)NC(=O)[C@@H](CC(=O)N(CC(=O)N(C)C)Cc1cccnc1)CC1CC1', 'pIC50', 6.46),
  ('CC(C)C[C@H](O)[C@H](O)[C@H](CC1CCCCC1)NC(=O)[C@@H](CC(=O)N(CC(=O)N1CCOCC1)CC1CCCCC1)Cc1csc(N)n1', 'pIC50', 8.82),
  ('CC(C)C[C@H](O)[C@H](O)[C@H](CC1CCCCC1)NC(=O)[C@@H](CC(=O)N(CC(=O)N(C)C)CC1CCCCCC1)Cc1cccnc1', 'pIC50', 8.15),
  ('CC(C)C[C@H](O)[C@H](O)[C@H](CC1CCCCC1)NC(=O)[C@@H](CC(=O)N(CC(=O)N(C)CCN1CCOCC1)CC1CCCCC1)Cc1csc(N)n1', 'pIC50', 9.30),
  ('CC(C)C[C@H](O)[C@H](O)[C@H](CC1CCCCC1)NC(=O)[C@@H](CC(=O)N(CC(=O)N(C)C)CC1CCCCC1)Cc1nccs1', 'pIC50', 8.80),
  ('CC(C)C[C@H](O)[C@H](O)[C@H](CC1CCCCC1)NC(=O)[C@@H](CC(=O)N(CC(=O)N(C)CCc1ccccn1)CC1CCCCCC1)Cc1csc(N)n1', 'pIC50', 9.00),
  ('CC(C)C[C@H](O)[C@H](O)[C@H](CC1CCCCC1)NC(=O)[C@@H](CC(=O)N(CC(=O)N1CCOCC1)CC1CCCCC1)Cc1ccccn1', 'pIC50', 8.40);

// data source = patent US5541163A
